# target-of-assay: T1, human IL-17A/F (human, UniProt Q16552 24-155; Q96PD4 31-163)
# T1 construct: Heterodimer of IL-17A and IL-17F, purified recombinant; also called HuIL-17A/F; Hu IL-17A/F
# T1 sequence (Q16552 24-155 limits assumed, chain 1 of 2): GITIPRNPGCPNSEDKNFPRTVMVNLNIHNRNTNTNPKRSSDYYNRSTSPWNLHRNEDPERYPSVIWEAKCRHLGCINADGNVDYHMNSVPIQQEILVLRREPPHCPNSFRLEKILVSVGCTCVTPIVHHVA
# T1 sequence (Q96PD4 31-163 limits assumed, chain 2 of 2): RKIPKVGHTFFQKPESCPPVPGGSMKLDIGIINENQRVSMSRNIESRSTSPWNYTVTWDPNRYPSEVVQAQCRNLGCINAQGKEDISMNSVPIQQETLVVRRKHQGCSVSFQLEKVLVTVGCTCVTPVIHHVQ
# test-summary: SPR Biacore, captured binder
Listed next: entries and their corresponding Kd.
Return type: number; implicit unit pM.

Consider the reported Kd for these binders:
binder | result-units | Kd
IL17-TN-K7-B6 (antibody, V domains shown, Fully human antibody) VH: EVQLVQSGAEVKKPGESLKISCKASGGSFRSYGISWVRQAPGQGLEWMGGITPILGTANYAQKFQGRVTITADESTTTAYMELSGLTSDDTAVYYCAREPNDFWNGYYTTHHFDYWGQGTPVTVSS VL: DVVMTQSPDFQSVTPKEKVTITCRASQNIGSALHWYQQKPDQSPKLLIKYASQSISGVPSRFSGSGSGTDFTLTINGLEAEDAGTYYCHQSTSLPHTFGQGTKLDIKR | pM | 21900
IL17-G9-2 (antibody, V domains shown) VH: EVQLLESGGGVVQPGRSLRLSCAASGFIFRNYGMHWVRQAPGKGLEWVAVISYDGSNKYYADSVKGRFTISRDNSKNTLYLEMNSLRPEDTAVYYCAKVGASGDYYYSYGLDVWGQGTTVTVSS VL: QSVLTQPPSASGTPGQTVSISCSGSNSNIGRHPVDWYQQVPGAAPKLLIYYDDQRPSGVPDRFSGSQSGTSASLAISGLQSEDEADYYCATWDDSLGGYVFGSGTKVTVLG | pM | 437
IL17-B6-16 (antibody, V domains shown) VH: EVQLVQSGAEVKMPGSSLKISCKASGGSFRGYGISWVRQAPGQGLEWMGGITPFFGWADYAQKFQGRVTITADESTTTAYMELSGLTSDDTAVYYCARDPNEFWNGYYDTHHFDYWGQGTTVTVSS VL: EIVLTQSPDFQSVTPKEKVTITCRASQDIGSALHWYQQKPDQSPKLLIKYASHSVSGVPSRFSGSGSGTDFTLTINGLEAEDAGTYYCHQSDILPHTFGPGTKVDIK | pM | 16.4
IL17-G9-M2 (antibody, V domains shown, converted into IgG) VH: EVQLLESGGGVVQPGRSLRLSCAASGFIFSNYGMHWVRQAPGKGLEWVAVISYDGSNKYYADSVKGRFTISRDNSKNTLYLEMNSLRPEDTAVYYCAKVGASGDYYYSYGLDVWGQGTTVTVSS VL: QSVLTQPPSASGTPGQTVSISCSGHNSNIGYHYVHWYQQVPGAAPKLLIYGDGWRPSGVPDRFSGSQSGTSASLAISGLQSEDEADYYCGTWDDWLGGYVFGTGTKVTVLG | pM | 10.3

Input: What Kd value was documented for this binder, IL17-B6-15 (antibody, V domains shown) VH: EVQLVQSGAEVKKPGESLKISCKASGGSFSGYGTSWVRQAPGQGLEWMGGITHFFGAVDYAQKFQGRVTITADESTTTAYMELSGLTSDDTAVYYCARDPNEFWNGYYATHDFDYWGQGTTVTVSS VL: EIVLTQSPDFQSVTPKEKVTITCRASQNIGAELHWYQQKPDQSPKLLIKYASHSISGVPSRFSGSGSGTDFTLTINGLEAEDAGTYYCHQTDRLPYSFGPGTKVDIK ?
Output: 6.47
